- target system: Prostaglandin E2 receptor EP2 subtype (Homo sapiens)
- assay comment: EP2 receptor modulators, dose response, cell-based, human EP2, PGE2 EC50 shift (AID 1421)
- condition set: EP2-expressing cells, PGE2 EC50 shift by compound; measured here: PGE2 EC50 at 6.7 uM compound

{"molecule": "CCCCCCn1c(COc2ccccc2F)nnc1SCC(=O)N1c2ccccc2NC(=O)C1(C)C", "target system": "Prostaglandin E2 receptor EP2 subtype (Homo sapiens)", "PGE2 EC50 with compound": "0.93 nM"}
{"molecule": "CCCN(CCC)C(C)C(=O)NCC1(c2ccccc2)CCCC1 (stereo unspecified)", "target system": "Prostaglandin E2 receptor EP2 subtype (Homo sapiens)", "PGE2 EC50 with compound": "0.94 nM"}
{"molecule": "FC(F)(F)c1cc(-c2ccccc2)nc2nc(N3CCOCC3)sc12", "target system": "Prostaglandin E2 receptor EP2 subtype (Homo sapiens)", "PGE2 EC50 with compound": "1.68 nM"}
{"molecule": "CC(=O)c1cc(C#N)c(SCc2ccccc2)nc1C", "target system": "Prostaglandin E2 receptor EP2 subtype (Homo sapiens)", "PGE2 EC50 with compound": "0.83 nM"}
{"molecule": "O=C(Nc1ccccc1Oc1ccccc1)c1ccccc1F", "target system": "Prostaglandin E2 receptor EP2 subtype (Homo sapiens)", "PGE2 EC50 with compound": "1.07 nM"}
{"molecule": "CC(C)=CCC/C(C)=C/CC/C(C)=C/CSc1ccccc1C(=O)O", "target system": "Prostaglandin E2 receptor EP2 subtype (Homo sapiens)", "PGE2 EC50 with compound": "0.69 nM"}

====

- target system: UniProtKB P43116
- Sequence (P43116 whole entry, looked up): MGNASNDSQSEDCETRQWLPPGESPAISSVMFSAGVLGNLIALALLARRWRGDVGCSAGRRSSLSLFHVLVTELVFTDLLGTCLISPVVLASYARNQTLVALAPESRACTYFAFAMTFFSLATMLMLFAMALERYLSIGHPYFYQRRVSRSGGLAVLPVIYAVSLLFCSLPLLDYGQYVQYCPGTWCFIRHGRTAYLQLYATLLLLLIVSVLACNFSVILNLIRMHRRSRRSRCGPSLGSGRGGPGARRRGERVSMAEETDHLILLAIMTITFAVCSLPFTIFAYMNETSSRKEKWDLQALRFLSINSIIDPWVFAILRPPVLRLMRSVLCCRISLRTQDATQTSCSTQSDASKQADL
- assay comment: EP2 receptor modulators, dose response, cell-based, human EP2, PGE2 EC50 shift (AID 1421)
- condition set: EP2-expressing cells, PGE2 EC50 shift by compound; measured here: PGE2 EC50 at 6.7 uM compound
This listing pairs molecules with measured PGE2 EC50 with compound.
measure: PGE2 EC50 with compound (nM)

{"smiles structure": "Cc1cccc(C)c1OCc1nnc(SCC(=O)Nc2nccs2)n1-c1ccccc1", "reported result": 1.01}
{"smiles structure": "O=c1[nH]ncc2c3ccccc3n(Cc3cccc(Cl)c3)c12", "reported result": 0.98}
{"smiles structure": "O=C(c1ccco1)N(Cc1cccc([N+](=O)[O-])c1)c1ccc(Br)cc1", "reported result": 1.01}
{"smiles structure": "N#Cc1cn(-c2ccccc2)nc1-c1cc2ccccc2oc1=O", "reported result": 0.99}
{"smiles structure": "CCC(=O)Oc1ccc2c(C)cc(=O)oc2c1C(=O)c1ccccc1", "reported result": 1}

====

- target system: UniProt:P43116
- assay comment: EP2 receptor modulators, dose response, cell-based, human EP2, PGE2 EC50 shift (AID 1421)
- condition set: EP2-expressing cells, PGE2 EC50 shift by compound; measured here: PGE2 EC50 at 6.7 uM compound

{"compound": "COc1cc(-c2nc(-c3cccc(C)c3)no2)cc(OC)c1OC", "PGE2 EC50 with compound": "1.14 nM"}
{"compound": "CN(C)Cc1ccccc1Sc1cccc2ccccc12", "PGE2 EC50 with compound": "1.07 nM"}
{"compound": "COc1ccc(C(=O)c2cnc3ccccc3c2-c2ccccc2)cc1", "PGE2 EC50 with compound": "0.59 nM"}
{"compound": "Cc1cc(C)cc(C(=N)c2ccccc2Cc2cccc3ccccc23)c1", "PGE2 EC50 with compound": "1.22 nM"}
{"compound": "CC(=O)OC[C@@]1(O)C[C@@]23CCC4c5ccoc5CC[C@]4(C)C2CC[C@@H]1C3 (some centres not stated)", "PGE2 EC50 with compound": "0.85 nM"}
{"compound": "COCCn1c(SCC(=O)NCCc2ccccc2)nnc1-c1ccco1", "PGE2 EC50 with compound": "1.4 nM"}
{"compound": "CC(C)OC(=O)c1c(NC(=O)c2ccco2)sc2c1CCCCC2", "PGE2 EC50 with compound": "0.74 nM"}
{"compound": "COc1ccc(-c2c3c([nH]c(=S)c2C#N)CCC3)cc1", "PGE2 EC50 with compound": "2.78 nM"}
{"compound": "Cc1ccc(-c2nn(-c3ccccc3)cc2CN(Cc2ccccc2)C(=O)c2ccco2)o1", "PGE2 EC50 with compound": "0.7 nM"}
{"compound": "O=c1c2cn[nH]c2nc(SCc2ccccc2F)n1-c1ccc(Br)cc1", "PGE2 EC50 with compound": "0.77 nM"}
{"compound": "Cc1ccc(N(C(=O)c2snc(C(N)=O)c2N)C(C(=O)NCCC(C)C)c2ccco2)cc1 (configuration not stated)", "PGE2 EC50 with compound": "2.61 nM"}
{"compound": "Cc1cccc(OCc2n[nH]c(=S)n2Cc2ccccc2)c1", "PGE2 EC50 with compound": "1.31 nM"}

====

This listing pairs compounds with measured PGE2 EC50 with compound.
- target system: Prostaglandin E2 receptor EP2 subtype (Homo sapiens)
- assay comment: EP2 receptor modulators, dose response, cell-based, human EP2, PGE2 EC50 shift (AID 1421)
- condition set: EP2-expressing cells, PGE2 EC50 shift by compound; measured here: PGE2 EC50 at 6.7 uM compound

{"smiles structure": "CC(=O)O[C@@H]1c2c(ccc3ccc(=O)oc23)OC(C)(C)[C@@H]1OC(=O)CC(C)C", "PGE2 EC50 with compound, nM": 0.92}
{"smiles structure": "O=C(O)c1csc(N/N=C/c2ccc(Br)cc2)n1", "PGE2 EC50 with compound, nM": 0.89}
{"smiles structure": "Cc1ccc(/C=N/N(Cc2ccccc2)c2ccccc2)o1", "PGE2 EC50 with compound, nM": 0.92}
